Test system: HOP-62 complex spheroids with HUVEC/MSC, viability
test_name: Anticancer human tumor HOP-62 cell line growth inhibition [RAS];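 also: spheroids exposed to agents for seven days before readout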
condition_notes: curve of first compound; second compound 0.00316 µM
pIC50: −log10 of the molar value.
Condition met means recorded pIC50 is 7 or above; Condition not met means it is below 7.

{"columns": ["compound", "label_value"],
 "data": [
  ["Nc1ccn(C2OC(CO)C(O)C2(F)F)c(=O)n1 (stereo not given) + C=CC(=O)N1CCN(c2nc(OCC3CCCN3C)nc3c(F)c(-c4nc(N)cc(C)c4C(F)(F)F)c(Cl)cc23)C(C)C1", "Condition met"],
  ["CC(C)NCC(C(=O)N1CCN(c2ncnc3c2C(C)CC3O)CC1)c1ccc(Cl)cc1 (stereo not given) + C=CC(=O)N1CCN(c2nc(OCC3CCCN3C)nc3c(F)c(-c4nc(N)cc(C)c4C(F)(F)F)c(Cl)cc23)C(C)C1", "Condition not met"],
  ["C[C@@H](NC(=O)c1ncnc(N)c1Cl)c1ncc(C(=O)Nc2cc(C(F)(F)F)c(Cl)cn2)s1 + C=CC(=O)N1CCN(c2nc(OCC3CCCN3C)nc3c(F)c(-c4nc(N)cc(C)c4C(F)(F)F)c(Cl)cc23)C(C)C1", "Condition not met"],
  ["CC(C)n1nc(-c2ccc3oc(N)nc3c2)c2c(N)ncnc21 + C=CC(=O)N1CCN(c2nc(OCC3CCCN3C)nc3c(F)c(-c4nc(N)cc(C)c4C(F)(F)F)c(Cl)cc23)C(C)C1", "Condition met"],
  ["O=C(c1ccc(F)c(F)c1Nc1ccc(I)cc1F)N1CC(O)([C@@H]2CCCCN2)C1 + C=CC(=O)N1CCN(c2nc(OCC3CCCN3C)nc3c(F)c(-c4nc(N)cc(C)c4C(F)(F)F)c(Cl)cc23)C(C)C1", "Condition met"]
]}

Input: Reported pIC50 at or above 7? C=CC(=O)Nc1cc(Nc2nccc(-c3cn(C)c4ccccc34)n2)c(OC)cc1N(C)CCN(C)C + C=CC(=O)N1CCN(c2nc(OCC3CCCN3C)nc3c(F)c(-c4nc(N)cc(C)c4C(F)(F)F)c(Cl)cc23)C(C)C1
Output: Condition not met

Input: Reported pIC50 at or above 7? NC1c2ccccc2OC12CCN(c1cnc3c(N4CCCc5ncccc54)n[nH]c3n1)CC2 (stereo not given) + C=CC(=O)N1CCN(c2nc(OCC3CCCN3C)nc3c(F)c(-c4nc(N)cc(C)c4C(F)(F)F)c(Cl)cc23)C(C)C1
Output: Condition met

Input: Reported pIC50 at or above 7? CCN1CCN(Cc2ccc(Nc3ncc(F)c(-c4cc(F)c5nc(C)n(C(C)C)c5c4)n3)nc2)CC1 + C=CC(=O)N1CCN(c2nc(OCC3CCCN3C)nc3c(F)c(-c4nc(N)cc(C)c4C(F)(F)F)c(Cl)cc23)C(C)C1
Output: Condition not met

###

Tested on: HOP-62 complex spheroids with HUVEC/MSC, viability
test_name: Anticancer human tumor HOP-62 cell line growth inhibition [RAS]; active means viability on the fitted dose curve at most 10% of control; inactive means the rest;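 also: spheroids exposed to agents for seven days before readout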
condition_notes: second compound 0.316 µM; first compound 0.00949 µM
Give one outcome, nothing more. List: active, inactive

Solved cases below.
{"columns": ["compound", "label_value"],
 "data": [
  ["CCc1c2c(nc3ccc(O)cc13)-c1cc3c(c(=O)n1C2)COC(=O)[C@]3(O)CC + C=CC(=O)N1CCN(c2nc(OCC3CCCN3C)nc3c(F)c(-c4nc(N)cc(C)c4C(F)(F)F)c(Cl)cc23)C(C)C1", "active"],
  ["CC1(C)CCC(Nc2ncc(C(F)(F)F)c(-c3c[nH]c4c(P(C)(C)=O)c(C#N)ccc34)n2)CN1 (centres undefined) + C=CC(=O)N1CCN(c2nc(OCC3CCCN3C)nc3c(F)c(-c4nc(N)cc(C)c4C(F)(F)F)c(Cl)cc23)C(C)C1", "inactive"],
  ["CC1(C)CCC(Nc2ncc(C(F)(F)F)c(-c3c[nH]c4c(P(C)(C)=O)c(C#N)ccc34)n2)CN1 (centres undefined) + C#Cc1c(F)ccc2cc(O)cc(-c3ncc4c(N5CC6CCC(C5)N6)nc(OCC56CCCN5CC(F)C6)nc4c3F)c12", "inactive"]
]}

Then this compound:
Input: What was the test verdict on CCc1c2c(nc3ccc(O)cc13)-c1cc3c(c(=O)n1C2)COC(=O)[C@]3(O)CC + C#Cc1c(F)ccc2cc(O)cc(-c3ncc4c(N5CC6CCC(C5)N6)nc(OCC56CCCN5CC(F)C6)nc4c3F)c12 ?
Output: active
